# inhibition at 3 µM annotations
tested_on: Human CaV2.2 channels (Homo sapiens)
Construct: expressed in transfected cells
method_notes: Fluorescent assay for CaV2.2 channels using potassium depolarization to induce channel opening (FLIPR, Fluo-4)
Assay type: cell-based
condition_context: 3 μM test compound, 30 mM KCl, HEK293 cells stably expressing human CaV2.2; read-out: %-Inhib (CaV2.2) @3 μM @30 mM KCl
Description: In the process, the Ca^2+ influx is quantified in the FLIPR assay with the aid of a Ca^2+-sensitive dye (type Fluo-4, Molecular Probes Europe BV, Leiden, the Netherlands) in a fluorescent imaging plate reader (FLIPR 3, Molecular Devices, Sunnyvale, USA), as described hereinafter. […] Plates were incubated at 37° C. […] Fluorescence intensity was measured on a FLIPR 3 instrument (Molecular Devices Corp., Sunnyvale, Calif.) with excitation at 480 nm and emission at 535 nm. […]
measurement_label: inhibition at 3 µM

1) Cc1c(-c2ccc(Cl)cc2)c(C(=O)N(C)Cc2ccnc(N(C)C)n2)n(Cc2ccccc2)c1C(F)(F)F [SC-147]    75 to 95%
2) Cc1cc(CN(C)C(=O)c2c(-c3ccc(Cl)cc3)cc(C(F)(F)F)n2Cc2ccccc2)on1 [SC-204]    75 to 95%
3) COC1CCN(C(=O)c2c(-c3ccc(Cl)cc3)cc(C(F)(F)F)n2Cc2ccccc2)CC1 [SC-208]    > 95%
4) CN(CC(C)(C)C)C(=O)c1c(-c2ccc(Cl)cc2)c(C2CC2)c(C(F)(F)F)n1Cc1ccccc1 [SC-120]    75 to 95%
5) CCS(=O)(=O)CCN(C)C(=O)c1c(-c2ccc(Cl)cc2)cc(C(F)(F)F)n1Cc1ccccc1 [SC-192]    > 95%
6) CC(C)N(C)C(=O)c1c(-c2ccc(Cl)cc2)cc(C(F)(F)F)n1Cc1ccccc1 [SC-213]    > 95%
7) Cc1c(-c2ccc(Cl)cc2)c(C(=O)N(C)C)n(Cc2ccccc2)c1C(F)(F)F [SC-18]    75 to 95%
8) CCN(CCS(C)(=O)=O)C(=O)c1c(-c2ccc(Cl)cc2)c(C)c(C(F)(F)F)n1Cc1ccccc1 [SC-128]    > 95%

---

Parameter inhibition at 3 µM: see the listing below.
tested_on: Human CaV2.2 channels (Homo sapiens, UniProt Q00975)
Construct: expressed in transfected cells
Sequence (Q00975 whole entry): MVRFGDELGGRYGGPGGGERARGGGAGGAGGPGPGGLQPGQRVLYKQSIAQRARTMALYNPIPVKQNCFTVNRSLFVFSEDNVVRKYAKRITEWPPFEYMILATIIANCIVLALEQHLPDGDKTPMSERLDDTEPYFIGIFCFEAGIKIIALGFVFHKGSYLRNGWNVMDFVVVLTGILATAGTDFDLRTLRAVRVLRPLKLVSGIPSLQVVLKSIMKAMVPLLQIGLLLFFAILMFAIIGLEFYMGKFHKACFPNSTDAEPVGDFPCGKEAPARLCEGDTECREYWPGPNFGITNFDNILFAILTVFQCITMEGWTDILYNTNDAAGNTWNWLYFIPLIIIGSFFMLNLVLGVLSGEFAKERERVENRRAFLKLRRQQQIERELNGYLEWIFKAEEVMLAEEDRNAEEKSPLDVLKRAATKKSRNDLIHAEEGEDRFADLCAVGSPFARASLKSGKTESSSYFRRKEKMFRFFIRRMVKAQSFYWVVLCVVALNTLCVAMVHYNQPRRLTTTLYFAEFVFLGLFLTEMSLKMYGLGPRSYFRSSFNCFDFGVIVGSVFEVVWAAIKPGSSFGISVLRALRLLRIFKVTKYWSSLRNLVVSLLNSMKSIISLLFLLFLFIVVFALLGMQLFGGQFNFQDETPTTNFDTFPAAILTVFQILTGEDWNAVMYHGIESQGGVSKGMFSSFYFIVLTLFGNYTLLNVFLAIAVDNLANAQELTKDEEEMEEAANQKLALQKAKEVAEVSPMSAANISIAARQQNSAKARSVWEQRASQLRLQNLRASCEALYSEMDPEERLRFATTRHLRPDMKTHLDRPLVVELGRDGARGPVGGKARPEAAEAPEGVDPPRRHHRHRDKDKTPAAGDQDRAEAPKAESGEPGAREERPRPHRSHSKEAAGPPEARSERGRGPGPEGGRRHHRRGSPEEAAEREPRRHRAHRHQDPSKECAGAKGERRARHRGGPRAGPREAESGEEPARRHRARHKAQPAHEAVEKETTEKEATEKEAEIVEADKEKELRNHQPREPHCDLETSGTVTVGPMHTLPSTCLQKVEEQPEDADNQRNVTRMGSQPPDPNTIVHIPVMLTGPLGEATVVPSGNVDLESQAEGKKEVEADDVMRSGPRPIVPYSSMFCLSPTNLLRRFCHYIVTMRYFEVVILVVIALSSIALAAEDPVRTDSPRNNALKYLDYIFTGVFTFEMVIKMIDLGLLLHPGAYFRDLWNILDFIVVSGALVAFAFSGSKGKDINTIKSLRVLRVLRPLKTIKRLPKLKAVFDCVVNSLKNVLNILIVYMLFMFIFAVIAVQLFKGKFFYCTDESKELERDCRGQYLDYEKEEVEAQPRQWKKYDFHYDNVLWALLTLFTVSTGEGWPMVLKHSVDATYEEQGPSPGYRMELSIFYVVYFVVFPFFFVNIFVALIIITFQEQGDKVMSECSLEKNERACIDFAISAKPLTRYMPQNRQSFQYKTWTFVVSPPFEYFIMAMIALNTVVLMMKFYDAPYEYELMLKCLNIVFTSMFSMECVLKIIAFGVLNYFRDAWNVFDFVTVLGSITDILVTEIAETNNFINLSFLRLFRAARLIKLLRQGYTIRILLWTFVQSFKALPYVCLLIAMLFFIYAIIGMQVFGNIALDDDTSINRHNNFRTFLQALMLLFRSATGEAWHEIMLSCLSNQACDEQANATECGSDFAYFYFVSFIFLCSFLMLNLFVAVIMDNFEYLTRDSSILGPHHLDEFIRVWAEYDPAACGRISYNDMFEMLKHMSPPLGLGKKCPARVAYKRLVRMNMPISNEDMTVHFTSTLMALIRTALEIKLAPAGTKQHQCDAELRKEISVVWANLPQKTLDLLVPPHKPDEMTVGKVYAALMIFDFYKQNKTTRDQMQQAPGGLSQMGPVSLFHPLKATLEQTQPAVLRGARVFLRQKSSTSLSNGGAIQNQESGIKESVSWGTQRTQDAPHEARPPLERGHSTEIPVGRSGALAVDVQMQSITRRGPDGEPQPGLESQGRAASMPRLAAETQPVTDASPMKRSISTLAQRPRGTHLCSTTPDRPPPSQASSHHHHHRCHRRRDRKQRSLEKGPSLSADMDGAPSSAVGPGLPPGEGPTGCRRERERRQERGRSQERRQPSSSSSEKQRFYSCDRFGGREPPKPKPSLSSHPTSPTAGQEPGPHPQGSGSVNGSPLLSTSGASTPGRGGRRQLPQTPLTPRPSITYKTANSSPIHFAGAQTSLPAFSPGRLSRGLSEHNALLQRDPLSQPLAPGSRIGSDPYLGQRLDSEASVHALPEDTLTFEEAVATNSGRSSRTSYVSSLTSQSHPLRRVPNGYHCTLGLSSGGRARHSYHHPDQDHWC
Sequence (P54289 25-1103, further chain): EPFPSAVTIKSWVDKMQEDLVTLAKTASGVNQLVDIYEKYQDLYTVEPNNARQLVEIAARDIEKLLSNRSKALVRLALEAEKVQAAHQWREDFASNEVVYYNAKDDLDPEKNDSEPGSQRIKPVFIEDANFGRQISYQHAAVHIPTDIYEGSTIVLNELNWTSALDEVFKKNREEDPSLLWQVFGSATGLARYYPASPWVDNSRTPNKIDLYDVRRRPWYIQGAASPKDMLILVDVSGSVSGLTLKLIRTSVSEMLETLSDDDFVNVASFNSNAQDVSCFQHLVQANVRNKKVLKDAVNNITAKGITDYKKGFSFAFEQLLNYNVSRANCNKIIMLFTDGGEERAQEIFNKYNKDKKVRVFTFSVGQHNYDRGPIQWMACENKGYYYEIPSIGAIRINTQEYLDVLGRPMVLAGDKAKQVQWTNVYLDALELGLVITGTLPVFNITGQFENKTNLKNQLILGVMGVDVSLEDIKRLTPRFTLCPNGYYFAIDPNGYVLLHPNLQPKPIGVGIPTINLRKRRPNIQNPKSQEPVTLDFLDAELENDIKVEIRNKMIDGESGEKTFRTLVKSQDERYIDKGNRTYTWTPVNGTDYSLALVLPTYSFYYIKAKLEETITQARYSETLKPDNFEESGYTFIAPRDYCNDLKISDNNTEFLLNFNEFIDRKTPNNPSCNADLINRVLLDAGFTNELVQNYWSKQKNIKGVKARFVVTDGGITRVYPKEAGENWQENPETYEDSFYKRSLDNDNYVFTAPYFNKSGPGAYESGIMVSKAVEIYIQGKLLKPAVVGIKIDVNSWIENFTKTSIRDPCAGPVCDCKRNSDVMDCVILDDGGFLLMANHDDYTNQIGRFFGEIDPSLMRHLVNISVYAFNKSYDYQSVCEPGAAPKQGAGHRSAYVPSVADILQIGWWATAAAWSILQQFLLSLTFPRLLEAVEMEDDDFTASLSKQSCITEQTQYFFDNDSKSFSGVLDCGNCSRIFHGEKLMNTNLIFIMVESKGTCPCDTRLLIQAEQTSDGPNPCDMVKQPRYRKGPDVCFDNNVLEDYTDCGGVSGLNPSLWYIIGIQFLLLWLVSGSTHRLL
Sequence (P54284 whole entry, further chain): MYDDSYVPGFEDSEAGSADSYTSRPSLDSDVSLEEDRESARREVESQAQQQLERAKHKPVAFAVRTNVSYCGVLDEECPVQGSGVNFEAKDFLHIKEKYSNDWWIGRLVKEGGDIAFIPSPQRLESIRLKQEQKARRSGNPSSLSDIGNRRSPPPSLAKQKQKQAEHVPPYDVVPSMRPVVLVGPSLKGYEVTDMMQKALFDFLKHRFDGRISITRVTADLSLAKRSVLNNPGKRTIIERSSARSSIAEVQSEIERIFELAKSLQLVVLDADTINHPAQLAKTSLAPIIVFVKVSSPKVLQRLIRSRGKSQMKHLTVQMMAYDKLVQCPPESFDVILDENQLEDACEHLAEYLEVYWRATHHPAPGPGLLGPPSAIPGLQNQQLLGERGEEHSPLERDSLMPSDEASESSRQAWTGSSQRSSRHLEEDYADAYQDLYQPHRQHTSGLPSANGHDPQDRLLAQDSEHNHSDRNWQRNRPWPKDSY
method_notes: Fluorescent assay for CaV2.2 channels using potassium depolarization to induce channel opening (FLIPR, Fluo-4)
Type: cell-based
condition_context: 3 μM test compound, 30 mM KCl, HEK293 cells stably expressing human CaV2.2; read-out: %-Inhib (CaV2.2) @3 μM @30 mM KCl
measurement_label: inhibition at 3 µM

1) Cc1c(-c2ccc(Cl)cc2)c(C(=O)N(C)CC2(C)COC2)n(Cc2ccccc2)c1C(F)(F)F [SC-60]    > 95%
2) CN(CC(C)(C)C)C(=O)c1c(-c2ccc(Cl)cc2F)cc(C(F)(F)F)n1Cc1ccccc1 [SC-88]    75 to 95%
3) Cc1c(-c2ccc(Cl)cc2F)c(C(=O)N2CC(O)C2)n(Cc2ccccc2)c1C(F)(F)F [SC-154]    75 to 95%
4) CN(CCC1CCCO1)C(=O)c1c(-c2ccc(Cl)cc2)cc(C(F)(F)F)n1Cc1ccccc1 (centres unmarked) [SC-195]    > 95%
5) Cc1c(-c2ccc(F)c(Cl)c2)c(C(=O)N2CCOC(C)(C)C2)n(Cc2ccccc2)c1C(F)(F)F [SC-258]    75 to 95%
6) O=C(c1c(-c2ccc(Cl)cc2)cc(C(F)(F)F)n1Cc1ccccc1)N1CCS(=O)(=O)CC1 [SC-196]    > 95%
7) Cc1c(-c2ccc(Cl)cc2)c(C(=O)N2CCOCC2)n(Cc2cccc(Cl)c2)c1C(F)(F)F [SC-25]    75 to 95%
8) Cc1c(-c2ccc(F)cc2)c(C(=O)N(C)CC(C)(C)C)n(Cc2ccccc2)c1C(F)(F)F [SC-224]    75 to 95%
9) Cc1c(-c2ccc(Cl)cc2)c(C(=O)NC2CC2)n(Cc2ccccc2)c1C(F)(F)F [SC-35]    75 to 95%
10) Cc1c(-c2ccc(Cl)cc2)c(C(=O)N(C)CC2CCCCO2)n(Cc2ccccc2)c1C(F)(F)F (centres unmarked) [SC-138]    75 to 95%
11) Cc1c(-c2ccc(Cl)cc2)c(C(=O)N(C)CC(C)(C)O)n(Cc2ccccc2)c1C(F)(F)F [SC-54]    > 95%
12) Cc1c(-c2ccc(F)cc2)c(C(=O)N(C)CC(C)(C)CO)n(Cc2ccccc2)c1C(F)(F)F [SC-218]    > 95%
13) CC1(C)CN(C(=O)c2c(-c3ccc(Cl)cc3)cc(C(F)(F)F)n2Cc2ccccc2)CCO1 [SC-75]    75 to 95%
14) Cc1nnc(CN(C)C(=O)c2c(-c3ccc(Cl)cc3)c(C)c(C(F)(F)F)n2Cc2ccccc2)o1 [SC-143]    > 95%
15) Cc1c(-c2ccc(F)c(Cl)c2)c(C(=O)N(C)CC(C)(C)CO)n(Cc2ccccc2)c1C(F)(F)F [SC-251]    75 to 95%
16) CN(C(=O)c1c(-c2ccc(Cl)cc2)cc(C(F)(F)F)n1Cc1ccccc1)C(C)(C)CCO [SC-184]    75 to 95%
17) CN(CC(C)(C)CO)C(=O)c1c(-c2ccc(Cl)cc2)cc(C(F)(F)F)n1Cc1ccccc1 [SC-79]    > 95%
18) Cc1c(-c2ccc(Cl)cc2F)c(C(=O)N(C)CCS(C)(=O)=O)n(Cc2ccccc2)c1C(F)(F)F [SC-64]    > 95%
19) Cc1c(-c2ccc(Cl)cc2)c(C(=O)N2CC(F)(F)C2)n(-c2ccc(Cl)cc2)c1C(F)(F)F [SC-44]    75 to 95%
20) Cc1nnc(CN(C)C(=O)c2c(-c3ccc(Cl)cc3)cc(C(F)(F)F)n2Cc2ccccc2)o1 [SC-206]    75 to 95%
21) CS(=O)(=O)CCNC(=O)c1c(-c2ccc(Cl)cc2)cc(C(F)(F)F)n1Cc1ccccc1 [SC-191]    75 to 95%
22) Cc1c(-c2ccc(F)cc2)c(C(=O)N2CC(O)C2)n(Cc2ccccc2)c1C(F)(F)F [SC-223]    75 to 95%
23) Cc1c(-c2ccc(OC(F)(F)F)cc2)c(C(=O)N2CCOCC2)n(Cc2ccccc2)c1C(F)(F)F [SC-105]    75 to 95%
24) Cc1c(-c2ccc(OC(F)(F)F)cc2)c(C(=O)N2CC(O)C2)n(Cc2ccccc2)c1C(F)(F)F [SC-239]    75 to 95%
25) CN(CC1(CO)CC1)C(=O)c1c(-c2ccc(Cl)cc2)cc(C(F)(F)F)n1Cc1ccccc1 [SC-178]    > 95%
26) Cc1c(-c2ccc(OC(F)(F)F)cc2)c(C(=O)N2CCOC(C)(C)C2)n(Cc2ccccc2)c1C(F)(F)F [SC-242]    75 to 95%
27) CN(CC(C)(C)C)C(=O)c1c(-c2ccc(Cl)cc2)c(S(C)(=O)=O)c(C(F)(F)F)n1Cc1ccccc1 [SC-259]    75 to 95%
28) Cc1c(-c2ccc(Cl)cc2)c(C(=O)N2CCOC(C)(C)C2)n(Cc2ccccc2)c1C(F)(F)F [SC-40]    > 95%
29) Cc1c(-c2ccc(Cl)cc2F)c(C(=O)NCCS(C)(=O)=O)n(Cc2ccccc2)c1C(F)(F)F [SC-163]    > 95%
30) CN(CCC(C)(C)O)C(=O)c1c(-c2ccc(Cl)cc2)cc(C(F)(F)F)n1Cc1ccccc1 [SC-176]    > 95%
31) CN(CC(C)(C)N1CCOCC1)C(=O)c1c(-c2ccc(Cl)cc2)cc(C(F)(F)F)n1Cc1ccccc1 [SC-85]    > 95%
32) CN(CC(C)(C)C)C(=O)c1c(-c2ccc(Cl)cc2)cc(C(F)(F)F)n1Cc1ccccc1 [SC-02]    75 to 95%
